# Test system: HepG2 cells
# Test summary: In vitro cytotoxicity (cellular ATP content, CellTiter-Glo)
# Format: cell-based
# Assay setup: 33 μM, 72 hr incubation
Answer each item with its documented % ATP reduction.
Number first, unit second: that is the form wanted.

// sample COCCCOc1nn([C@H]2CC[C@H](N3CCOCC3)CC2)cc1Nc1ncc(-c2ccc(C#N)c(O[C@@H](C)Cn3cnnn3)c2)cn1 [Example 26] , its % ATP reduction was 9%

// % ATP reduction lookup, molecule = COCCOCCCOc1nn([C@H]2CC[C@H](N3C[C@@H](C)O[C@@H](C)C3)CC2)cc1Nc1ncc(-c2ccc(C#N)c(O[C@@H](C)Cn3cnnn3)c2)cn1 [Example 488] , result: 3%

The molecule identified as COCCOCCOc1nn([C@H]2CC[C@H](N3C[C@@H](C)O[C@@H](C)C3)CC2)cc1Nc1ncc(-c2ccc(C#N)c(O[C@@H](C)Cn3cnnn3)c2)cn1.Cl [Example 241] registered its % ATP reduction at −2%

Lab note: measured % ATP reduction of COCCCOc1nn([C@H]2CC[C@H](N3C[C@@H](C)O[C@@H](C)C3)CC2)cc1Nc1ncc(-c2ccc(C#N)c(O[C@@H](C)Cn3cnnn3)c2)cn1 [Example 143] was 12%

The molecule listed as C[C@@H]1CN([C@H]2CC[C@H](n3cc(Nc4ncc(-c5ccc(C#N)c(O[C@@H](C)Cn6cnnn6)c5)cn4)c(OCCC4COC4)n3)CC2)C[C@H](C)O1 [Example 477] shows % ATP reduction equal to 9%

For reference, reported % ATP reduction for C[C@@H]1CN([C@H]2CC[C@H](n3cc(Nc4ncc(-c5ccc(C#N)c(O[C@@H](C)Cn6cnnn6)c5)cn4)c(OCCC(C)(C)O)n3)CC2)C[C@H](C)O1 [Example 485] stands at 7%

The reported numbers originate from patent US11130752B2.
